// data source = patent US20240368668A1

targetOrTestSystem: mouse ADAMTS7 (Mus musculus, UniProt Q68SA9, E373Q)
Construct: Full-length mouse Adamts7 1-1857 (Uniprot Q68SA9, WT or E373Q catalytic mutant); expressed in transfected cells; host or cells: Human Coronary Artery Smooth Muscle Cells (HCA-SMC, Lonza), adenovirus 50 MOI
Sequence (Q68SA9 221-1657 E373Q): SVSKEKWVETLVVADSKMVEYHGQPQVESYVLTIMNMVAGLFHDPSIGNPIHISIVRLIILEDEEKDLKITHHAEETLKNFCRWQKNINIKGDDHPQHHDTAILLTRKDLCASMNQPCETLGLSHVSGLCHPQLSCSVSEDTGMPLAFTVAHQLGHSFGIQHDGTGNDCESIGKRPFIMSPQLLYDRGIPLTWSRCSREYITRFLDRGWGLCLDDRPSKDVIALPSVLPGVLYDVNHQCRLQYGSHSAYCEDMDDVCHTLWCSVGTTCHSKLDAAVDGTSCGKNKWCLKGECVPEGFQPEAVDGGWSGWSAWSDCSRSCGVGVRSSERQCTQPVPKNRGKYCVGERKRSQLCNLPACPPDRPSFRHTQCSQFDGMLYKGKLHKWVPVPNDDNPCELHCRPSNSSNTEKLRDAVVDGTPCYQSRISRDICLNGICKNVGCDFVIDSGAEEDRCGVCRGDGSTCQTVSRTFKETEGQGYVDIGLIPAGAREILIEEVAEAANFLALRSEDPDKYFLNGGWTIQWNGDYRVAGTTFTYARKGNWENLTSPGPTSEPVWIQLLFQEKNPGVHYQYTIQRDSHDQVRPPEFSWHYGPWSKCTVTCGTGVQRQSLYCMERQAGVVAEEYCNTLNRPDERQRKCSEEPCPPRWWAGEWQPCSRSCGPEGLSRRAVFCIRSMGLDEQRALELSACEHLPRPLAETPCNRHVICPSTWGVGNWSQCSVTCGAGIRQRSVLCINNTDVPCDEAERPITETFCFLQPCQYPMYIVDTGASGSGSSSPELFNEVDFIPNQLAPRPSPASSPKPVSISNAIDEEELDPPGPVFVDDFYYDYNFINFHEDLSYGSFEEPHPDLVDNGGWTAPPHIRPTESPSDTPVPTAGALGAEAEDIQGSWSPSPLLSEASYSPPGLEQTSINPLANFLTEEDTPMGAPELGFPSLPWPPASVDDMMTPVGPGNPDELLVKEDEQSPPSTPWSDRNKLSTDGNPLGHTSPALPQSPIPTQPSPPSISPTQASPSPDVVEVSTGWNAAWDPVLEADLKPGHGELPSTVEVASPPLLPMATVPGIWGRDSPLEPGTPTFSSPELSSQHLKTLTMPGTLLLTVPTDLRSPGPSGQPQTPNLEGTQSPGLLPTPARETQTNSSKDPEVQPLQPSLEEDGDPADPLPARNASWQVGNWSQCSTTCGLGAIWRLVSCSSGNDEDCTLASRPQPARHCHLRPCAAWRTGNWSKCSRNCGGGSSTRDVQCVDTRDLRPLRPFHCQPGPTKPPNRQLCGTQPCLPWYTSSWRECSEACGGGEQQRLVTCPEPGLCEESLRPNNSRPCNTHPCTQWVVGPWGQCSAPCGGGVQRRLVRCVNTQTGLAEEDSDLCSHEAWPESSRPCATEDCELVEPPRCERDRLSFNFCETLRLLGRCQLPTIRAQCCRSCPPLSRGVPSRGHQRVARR
procedureDetails: TMT10 TAILS N-terminomics, HUVEC experiment (process replicates, trypsin/AspN digest)
Assay type: cell-based, human
conditionParameters: HUVEC TAILS HC; log fold change of N-terminal peptide, Ad-mADAMTS7 EQ over Luc
// class assignment uses logFC.mEQ.over.Luc with these ranges: bucket A: < -0.4; bucket B: ≥ -0.4 and < -0.2; bucket C: ≥ -0.2

Class label required: LTBP1_393 (LTATNFR; listed as Homo sapiens)
bucket C

Classify this substance: LTBP2_79 (VAGLQPVER; listed as Homo sapiens)
bucket B

Bin? NUCB1_389 (LQQAVLHMEQR; listed as Homo sapiens)
bucket B

Category of LTBP2_502 (LVENSVETRPPPWLPASPGHSLW; listed as Homo sapiens) :
bucket B

Lab note: sort EFEMP1_125_ (VAGPEMQTGR; listed as Homo sapiens) into the matching logFC.mEQ.over.Luc band.
bucket C

Where would COL18A1_1505 (LQPPVVQLHDSNPYPR; listed as Homo sapiens) land among the classes by reported logFC.mEQ.over.Luc?
bucket A

Hey, which category is LOX_125 (FQAGYSTSR; listed as Homo sapiens) in, do you know?
bucket C

In plain terms, what class is FN1_40 (QSPVAVSQSKPGCYDNGKHYQINQQWER; listed as Homo sapiens) ?
bucket A

Kindly state the category for this substance: MAP4_816 (VASTGPSSR; listed as Homo sapiens)
bucket C
